- System: PANC-1
- assay_remarks: SRB colorimetric cell growth inhibition assay, PANC-1
- Type: cell-based
- cond: PANC-1; GI=growth inhibition; read-out: GI50 PANC-1
measurement_name: GI50 (nM)
Numbers only here, please. The scale is nM.

Use these answered entries as a reference point.
molecule	tested_system	GI50 (nM)
COc1cc(-c2c3n(c4c(=O)oc5cc(OS(C)(=O)=O)c(OC)cc5c24)CCc2cc(OS(C)(=O)=O)c(OC)cc2-3)ccc1OS(C)(=O)=O	PANC-1	976
COc1cc(-c2c3c4cc(OC)c(OC(=O)[C@@H](N)Cc5ccccc5)cc4oc(=O)c3n3ccc4c(OC(=O)[C@@H](N)Cc5ccccc5)c(OC)c(OC)cc4c23)ccc1OC(=O)[C@@H](N)Cc1ccccc1 [Compound 31]	PANC-1	1960
COc1cc(-c2c3c4cc(OC)c(OC(=O)[C@@H](N)C(C)C)cc4oc(=O)c3n3ccc4c(OC(=O)[C@@H](N)C(C)C)c(OC)c(OC)cc4c23)ccc1OC(=O)[C@@H](N)C(C)C [Compound 35]	PANC-1	178
COc1cc(-c2c3c4cc(OC)c(OC(=O)[C@H](C)N)cc4oc(=O)c3n3ccc4cc(O)c(OC)cc4c23)ccc1O.Cl	PANC-1	70.5

Turning to the following molecule.
Lab book: GI50 of COc1cc2ccn3c(c(-c4ccc(OC(=O)[C@@H](N)Cc5ccccc5)c(OC)c4)c4c5cc(OC)c(OC(=O)[C@@H](N)Cc6ccccc6)cc5oc(=O)c43)c2cc1OC [Compound 18] noted as 992
